# tgt: Recombinant human cathepsin A (Homo sapiens)
# Construct: Recombinant human cathepsin A (residues 29-480, with a C-terminal 10-His tag); 10-His (C)
# Sequence (P10619 29-326 limits assumed): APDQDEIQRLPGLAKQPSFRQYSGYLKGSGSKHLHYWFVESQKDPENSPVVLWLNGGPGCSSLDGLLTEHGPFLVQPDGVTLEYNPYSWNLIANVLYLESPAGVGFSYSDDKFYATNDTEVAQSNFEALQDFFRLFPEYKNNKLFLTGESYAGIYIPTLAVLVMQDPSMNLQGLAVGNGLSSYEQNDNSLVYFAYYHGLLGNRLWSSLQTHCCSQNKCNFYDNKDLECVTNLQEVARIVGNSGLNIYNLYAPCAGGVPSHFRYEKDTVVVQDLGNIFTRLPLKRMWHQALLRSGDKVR
# Sequence (P10619 327-480 limits assumed): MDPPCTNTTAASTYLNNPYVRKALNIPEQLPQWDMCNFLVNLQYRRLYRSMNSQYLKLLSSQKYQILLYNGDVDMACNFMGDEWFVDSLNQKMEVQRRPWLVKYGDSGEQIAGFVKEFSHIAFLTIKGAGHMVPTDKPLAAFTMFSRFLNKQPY
# protocol text: Cathepsin A inhibitory activity
# reported conditions: activated recombinant human cathepsin A 833 ng/ml, Bodipy FL-labeled bradykinin substrate 2 μM, pH 5.5, room temperature
pIC50: −log10 of the molar value.
quantity name: pIC50

[a] O=C(O)C[C@H](NC(=O)c1csc(-c2ccccc2F)n1)c1cccc(Cl)c1
[b] COc1cccc([C@H](CC(=O)O)NC(=O)c2csc(-c3cccc(Cl)c3)n2)c1OC
[c] O=C(O)C[C@H](NC(=O)c1csc(-c2ccc(C(F)(F)F)cc2)n1)c1ccccc1C(F)(F)F
[d] O=C(O)CC(NC(=O)c1csc(-c2ccc(Cl)cc2)n1)C1CCCCC1 (stereo not shown)
[e] Cc1ccccc1[C@H](CC(=O)O)NC(=O)c1csc(-c2ccccc2)n1
Sort the listed molecules above so the one with the largest pIC50 comes first and the smallest comes last. Provide your answer as the labels ordered per the instruction.
e, a, b, d, c

[P] O=C(O)CC(NC(=O)c1csc(-c2ccccc2F)n1)C1CCCCC1 (stereo not shown)
[Q] COc1cccc([C@H](CC(=O)O)NC(=O)c2csc(-c3ccc(Cl)cc3)n2)c1
Consider P and Q . Which of these has its pIC50 at a higher number? Identify your selection by its label.
P
(P: 5.84, Q: 4.76)
